Target: NDM-1 (Klebsiella pneumoniae)
Test: biochemical
Format: biochemical
Details: CCF2-FA substrate, 2 hours at 25° C; read-out: NDM-1 IC50
Assign IC50 to each entry below.
Give a bare numeral; the unit nM is implied.

Record NCCS(=O)(=O)c1ccc(-c2cccc3nc(N)sc23)c(-c2nn[nH]n2)c1S(N)(=O)=O [Example 78] / NDM-1 (Klebsiella pneumoniae), IC50 recorded as 0.0576

// compound Nc1nc2cccc(-c3ccc([S+]([O-])C4CCNCC4)c(S(N)(=O)=O)c3-c3nn[nH]n3)c2[nH]1 (stereo not shown) [Example 14] , assay NDM-1 (Klebsiella pneumoniae), IC50 value: 0.292

NDM-1 (Klebsiella pneumoniae) IC50 of C[C@@H](N)CS(=O)(=O)c1ccc(-c2cccc3c2nc(N)n3C)c(-c2nn[nH]n2)c1S(N)(=O)=O [Example 275] is 0.582

Assay NDM-1 (Klebsiella pneumoniae), sample NCCS(=O)(=O)c1ccc(-c2ccc3nc(N)oc3c2)c(-c2nn[nH]n2)c1S(N)(=O)=O [Example 75] , IC50 read: 0.5

----------
Molecular target: NDM-1 (Klebsiella pneumoniae, UniProt C7C422)
Sequence (C7C422 whole entry, looked up, species assumed): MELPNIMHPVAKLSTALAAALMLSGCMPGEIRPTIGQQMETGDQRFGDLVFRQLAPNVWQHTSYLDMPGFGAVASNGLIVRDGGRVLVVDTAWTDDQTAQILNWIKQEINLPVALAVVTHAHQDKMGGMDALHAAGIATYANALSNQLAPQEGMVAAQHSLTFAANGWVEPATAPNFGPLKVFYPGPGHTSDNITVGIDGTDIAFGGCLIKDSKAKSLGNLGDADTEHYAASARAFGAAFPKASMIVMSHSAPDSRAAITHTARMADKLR
Test: biochemical
Format: biochemical
Conditions: CCF2-FA substrate, 2 hours at 25° C; read-out: NDM-1 IC50
testReadout: pIC50
Please keep in mind that pIC50 is minus log10 of the molar concentration; only the number is needed.

Field pIC50 (NDM-1 (Klebsiella pneumoniae, UniProt C7C422)), entry NCCS(=O)(=O)c1ccc(-c2ccnc3ccccc23)c(-c2nnn[nH]2)c1S(N)(=O)=O.O=C(O)C(F)(F)F [Example 138, 2,2,2-trifluoroacetate] : 9.10

Value (pIC50, NDM-1 (Klebsiella pneumoniae, UniProt C7C422)) for record NC[C@@H](CO)S(=O)(=O)c1ccc(-c2cccc3nc(N)[nH]c23)c(-c2nn[nH]n2)c1S(N)(=O)=O [Example 358] = 9.66

Kindly note: NDM-1 (Klebsiella pneumoniae, UniProt C7C422), Nc1nc2c(-c3ccc(S(=O)(=O)[C@H]4CN[C@H](CO)C4)c(S(N)(=O)=O)c3-c3nn[nH]n3)cccc2[nH]1 [Example 291] , pIC50 value reported: 9.71

The recorded pIC50 with NDM-1 (Klebsiella pneumoniae, UniProt C7C422) for NCCS(=O)(=O)c1ccc(-c2cccc(C(=O)N[C@H]3CCNC3)c2N)c(-c2nn[nH]n2)c1S(N)(=O)=O [Example 376] was 8.53

// returns pIC50 for NS(=O)(=O)c1c(S(=O)(=O)C2CNC2)ccc(-c2cccnc2N2CCOCC2)c1-c1nn[nH]n1 [Example 220] with NDM-1 (Klebsiella pneumoniae, UniProt C7C422); value = 9.05

# lookup: Nc1nc2c(-c3ccc(S(=O)(=O)C4CNC4)c(S(N)(=O)=O)c3-c3nn[nH]n3)cccc2[nH]1 [Example 43] on NDM-1 (Klebsiella pneumoniae, UniProt C7C422), pIC50 = 10.08

I looked up Nc1nc2cccc(-c3ccc(S(=O)(=O)[C@H]4C[C@H](N)C4)c(S(N)(=O)=O)c3-c3nn[nH]n3)c2[nH]1 [Example 175] and its pIC50 for NDM-1 (Klebsiella pneumoniae, UniProt C7C422) was 9.83

----------
Exercise: state measured Efflux ratio for each of the compounds provided.
Tested on: P. aeruginosa expressing IMP-1, efflux+ (MB9798)
Type: cell-based, Pseudomonas aeruginosa
Details: ratio MITC95 PA_9798/MITC95 PA_9799

Notebook: Nc1nc2c(-c3ccc(S(=O)(=O)CC(N)CO)c(S(N)(=O)=O)c3-c3nn[nH]n3)cccc2s1 (stereo not shown) [Example 96] , Efflux ratio read as 0.50

Recorded Efflux ratio (compound NS(=O)(=O)c1c(S(=O)(=O)C2CCNCC2)ccc([C@H]2CC[C@H](N)CC2)c1-c1nnn[nH]1 [Example 207] ): 2.00

Given item NCCS(=O)(=O)c1ccc(-c2cccc3cn[nH]c23)c(-c2nnn[nH]2)c1S(N)(=O)=O [Example 298] , the value recorded as its Efflux ratio is 2.00

Recorded result, COc1ccc(-c2ccc(S(=O)(=O)CCN)c(S(N)(=O)=O)c2-c2nnn[nH]2)c2[nH]c(C(F)(F)F)nc12.O=C(O)C(F)(F)F [Example 164] , Efflux ratio: 2.00
